Exercise: state measured pIC50 for each of the molecules provided.
- Tested on: CEM cells HIV-1 protection, formazan growth assay
- Run description: NCI AIDS Antiviral Assay
- Condition: measured here: growth of uninfected CEM cells
Answers are plain numbers, as −log10 of the molar value.

Use these answered entries as a reference point.
> print(dat)
                                   molecule  experimental.readout  data.value
1               CC(=O)N(O)c1ccccc1-c1ccccc1                 pIC50        3.99
2  CC(C)(C)c1ccc2c(c1)OCc1n[nH]c(n1)COc1cc(C(C)(C)C)ccc1OCCOCCO2                 pIC50        5.14

Parameters: items (list). Returns: pIC50 for each item.
1. CN(C)CCNc1ccc([N+](=O)[O-])c2nc3ccccc3c(N)c12
2. Cc1cn(C2CC(N=C(N)NO)C(CO)O2)c(=O)[nH]c1=O (configuration not stated)
3. CC(=O)/C(=C\c1ccccc1O)C(=O)Nc1ccccc1C
4. Cc1ccc(C)c(NC(=O)C(=O)C2C(=O)N(c3ccccc3)N=C2N)c1 (configuration not stated)
5. O=c1[nH]c2cc([N+](=O)[O-])ccc2nc1/C(=N/Nc1ccccc1)C(O)c1ccc(Cl)cc1Cl (configuration not stated)

Result string:
1: 5.71; 2: 3.15; 3: 4.65; 4: 3.20; 5: 3.83

Hi, could you look up pIC50 for each item in my list?
1. O=C(Nc1cccc(C(F)(F)F)c1)C(=O)C(C(=O)c1ccc(Cl)c(Cl)c1)C1OC(=O)c2ccccc21 (configuration not stated)
2. Cc1ccc(S(=O)(=O)N/N=C2/CCC3(O)CC2(C)CCC2[C@H]3CC2(C)C)cc1 (some centres not stated)
3. C=C1C(=O)O[C@H]2[C@H]3O[C@@H](C[C@@H]12)[C@](C)(O)CC[C@@H]1O[C@@]1(C)CCC[C@H]3C
4. CC1CC12OC(=O)N(c1cc(Cl)cc(Cl)c1)C2=O (configuration not stated)

Result string:
4.86
4.47
5.09
4.50

###

- Tested on: CEM cells HIV-1 protection, formazan growth assay
- Run description: NCI AIDS Antiviral Assay
- Condition: measured here: growth of uninfected CEM cells
- Experimental: The ability of compounds to protect human CEM cells from HIV-1 infection is measured as a screen for new compounds capable of inhibiting the HIV virus. Five concentrations of drug were tested on uninfected and infected cells and cell growth was measured using a soluble formazan assay. […] Compounds that provided at least 50% protection were retested. Compounds that provided at least 50% protection on retest were listed as moderately active. […]
pIC50: −log10 of the molar value.
For each entry below, report its pIC50 value.

Example results:
> print(dat)
                                   compound  experimental.readout  data.value
1                  Cc1nc2sc(C)c(C)c2c(=O)o1                 pIC50        4.02
2  O=c1[nH]c(=O)n(C2OC(CO)C(O)C2O)c2ncncc12 (configuration not stated)                 pIC50      < 3.70
3  COc1ccc(/C(=N\NC(=O)C(N)=O)C(c2ccc(OC)cc2)C2(O)C(=O)Nc3c(Cl)cccc32)cc1 (configuration not stated)                 pIC50      < 4.74
4  CCCC1(N2C(=O)c3ccc4c5c(ccc(c35)C2=O)N(C2(CCC)CCCCC2)C4=O)CCCCC1                 pIC50      < 4.00
5  NC(Cc1ccc(B(O)O)cc1)C(=O)NC(CO)CO (configuration not stated)                 pIC50      < 3.70
6  CN=S(=O)(C[C@]1(O)CC2OC1C1OC(C)(C)OC21)c1ccccc1 (some centres not stated)                 pIC50      < 3.15
7  C1=NCCNCCNCCN=Cc2ccccc2OCc2cccc(n2)COc2ccccc21                 pIC50        5.11
8  CC1(CCC#N)CCC(N)=CC1=O (configuration not stated)                 pIC50      < 3.70

Please state pIC50 for every compound in the list that follows.
1. CCOC(=O)C(C)(C)C(OP(OCC)OCC)=C(C)C
2. CC1(c2nc3ccccc3[nH]2)CCC(C(N)=O)C(C)(C)O1 (configuration not stated)

Result string:
1: < 3.23; 2: < 3.70

###

- Tested on: CEM cells HIV-1 protection, formazan growth assay
- Run description: NCI AIDS Antiviral Assay
- Condition: measured here: growth of uninfected CEM cells
pIC50: −log10 of the molar value.
# cutoff 4 applies to pIC50; >= gives 1 (yes), < gives 0 (no)

Molecule	Class assignment
COc1ccc(C(CC(=O)O)CC(=O)O)cc1[N+](=O)[O-]	0 (no)
COc1ccccc1-n1c(C)nc2ccccc2c1=O	0 (no)
Cc1noc(NC(=O)Nc2ccccc2C(F)(F)F)c1C	0 (no)
CC1(c2nc3ccccc3[nH]2)CCC(C(=O)O)C(C)(C)O1 (configuration not stated)	0 (no)

Query string: Answer whether pIC50 of CC(O[Si](c1ccccc1)(c1ccccc1)C(C)(C)C)[C@H](NC(=O)OC(C)(C)C)C(=O)O[Si](c1ccccc1)(c1ccccc1)C(C)(C)C (some centres not stated) is greater than or equal to 4.
Result string: 1 (yes)

Query string: Item COc1ccc2c(c1O)C1=CC(=O)CC[C@]13CCN(C)[C@H]3C2 with pIC50 of 4 or above?
Result string: 0 (no)

Query string: State whether the measured pIC50 reaches 4, counting equality as reaching it, for C/C(CN1C(=O)c2ccccc2C1=O)=N\NS(=O)(=O)c1ccc(Cl)cc1
Result string: 0 (no)

Query string: Identify whether the reported pIC50 of the following molecule is 4 or greater: CCOP(=O)(OCC)C1(O)CC(n2cc(C)c(=O)[nH]c2=O)OC1CO (configuration not stated)
Result string: 0 (no)

Query string: Item COc1ccc2[nH]c3c(C)c4ccnc(NCCCN(C)CCCNc5ccc([N+](=O)[O-])c6[nH]c7ccccc7c(=O)c56)c4c(C)c3c2c1 with pIC50 of 4 or above?
Result string: 1 (yes)

Query string: Reported pIC50 at or above 4? COc1cc(CO)c(CC(=O)NCCCc2ccccc2)cc1OC
Result string: 1 (yes)

###

- Test system: CEM cells HIV-1 protection, formazan growth assay
- Run description: NCI AIDS Antiviral Assay
- Condition: measured here: growth of uninfected CEM cells
Where a SMILES comes first, the peptide text is derived from it. The star is where a group is joined. Fmoc = O=C(OCC1c2ccccc2-c2ccccc21)*; Boc = CC(C)(C)OC(=O)*
For each of the compounds below, state its pIC50.
Answers are plain numbers, as −log10 of the molar value.

Use these answered entries as a reference point.
Compound	pIC50
C=C(C)[C@H]1C2=CC(C(=O)OC)=C(C[C@H](C(=C)C)[C@H]3O[C@H]3C3=C[C@H]1OC3=O)O2	5.79
CC(C)/C(Cl)=N\OC(NC(=O)P(=O)(c1ccccc1)c1ccccc1)(C(F)(F)F)C(F)(F)F	4.98
CC(C)(C)OC(=O)NCCCCC(NC(=O)OCC1c2ccccc2-c2ccccc21)C(=O)N1CCCC1C(=O)NCC(N)=O (stereo not drawn) (Fmoc-Lys(Boc)-Pro-Gly-NH2; configuration not given here)	4.04
CCCCCCCCCCCCCCCC(=O)Nc1ccn(C2CCC(COP(=O)(O)OCC3OC(n4ccc(NC(=O)CCCCCCCCCCCCCCC)nc4=O)CC3OP(=O)(O)OCC3OC(n4cc(C)c(=O)[nH]c4=O)CC3N=[N+]=[N-])O2)c(=O)n1 (stereo unspecified)	4.82
C/C(O)=C/c1nc2ccccc2[nH]1	2.90
Cc1cc(S(=O)(=O)n2ccnc2Oc2ccc(N)cc2)c(SSc2cc(Cl)c(C)cc2S(=O)(=O)n2ccnc2Oc2ccc(N)cc2)cc1Cl	4.66

Please give pIC50 for each item listed below.
1. O=C(CCc1ccc(O)c(O)c1)NCCc1cc(O)c(O)c(O)c1
2. Cn1c2ccccc2c2c(-c3ccccc3)cc3c(c21)C(=O)C=CC3=O
3. CC[C@@]1(OC(=O)CCC(=O)O)C(=O)OCc2c1cc1n(c2=O)Cc2cc3ccccc3nc2-1
4. CCNc1cc2c3c(c1)CCN3CCC2
5. NCC[PH+](c1ccccc1)c1ccccc1.NCC[PH+](c1ccccc1)c1ccccc1.[Cl-].[Pt+4]
6. Nc1ccccc1/C=C/c1ccnc2ccccc12
7. CCOC(=O)C1=c2[nH]c3cccc4cccc(c43)n2C(=O)CC1c1ccccc1 (stereo unspecified)

Result string:
5.30
5.26
8.15
4.99
4.14
4.39
4.12

Would you be so kind as to report pIC50 for each listed record?
1. O=C1C2C3CCC(C3)C2C(=O)C2C3CCC(C3)C12 (stereo unspecified)
2. O=C(O)CSC1=NNC2(C(=O)N1)c1ccccc1-c1ccccc12
3. N#CN1CCC=C(c2cc3ccccc3[nH]2)C1
4. CS(=O)(=O)SCc1ccc([N+](=O)[O-])cc1
5. N=N/C(=C\c1c(O)[nH]c2ccccc12)c1ccccc1

Result string:
[3.73, 4.23, 4.22, 4.69, 5.48]
